z-score values for the compounds below.
molecular target: Metabotropic glutamate receptor 8 (Rattus norvegicus); assay: mGluR8 Gi/Go-coupled signaling modulation – cell-based, rat, thallium flux, HTS, primary screen (AID 488969); settings: HEK293 rat mGluR8, GIRK thallium flux, FluoZin2; at 10 µM; stronger effect = higher value; submaximal glutamate (EC20) added with thallium
Whole data set: some 110,000 compounds, median “z-score” near -0.1, cut for the highest 2% near 2. This is one part of a sample in which the highest values are shown more often than they occur.

compound: O=C(O)CCc1ccc(-c2ccc(F)cc2)n1NC(=O)c1ccco1
z-score: 0.168
--
compound: C/C(CC(=O)NC(C)C)=N\NC(=O)COc1cc(C)c(Br)cc1Br
z-score: 6.24
--
compound: CCOCCCNC(=O)C(NC(=O)CC1NC(=O)NC1=O)c1ccc(Cl)cc1 (stereo not drawn)
z-score: -0.134
--
compound: CCOC(=O)c1c(NC(=O)CSc2nnc(CNc3ccc(Cl)cc3)o2)sc(C)c1C
z-score: -0.783
--
compound: COc1ccc(OCC(=O)N2CCN(c3nnc(-c4ccccc4)c4ccccc34)CC2)cc1
z-score: 0.267
--
compound: Clc1ccc(Cc2ccc(SCc3ccccc3)nn2)c(Cl)c1
z-score: 3.48
--
compound: Clc1ccc(OCc2cc(-c3ccccc3)no2)c(Cl)c1
z-score: -0.0969
--
compound: OCCN(Cc1ccccc1)Cc1ccccc1Cl
z-score: 0.0815
--
compound: Clc1ccc(Cc2ccc(Cl)nn2)c(Cl)c1
z-score: -0.119
--
compound: C/C(CC(=O)NCC(C)C)=N\NC(=O)COc1cc(C)c(Br)cc1Br
z-score: 5.36
--
compound: O=C(O)[C@H]1CCCC[C@H]1C(=O)NCCc1ccccc1
z-score: 0.402
--
compound: Cc1ccc(/C=C/S(=O)(=O)N2CCC(C(=O)O)CC2)cc1
z-score: -0.628
--
compound: COc1cc(/C=N/NC(=O)C(=O)Nc2ccccn2)ccc1O
z-score: -0.198
--
compound: CC1CC(C)CN(C(=S)Nc2ccc(OC(F)F)cc2)C1 (stereo not drawn)
z-score: -0.115
--
compound: COc1ccc(/C=C2\CCCc3c2nc2ccccc2c3C(=O)OCC(=O)c2c(N)n(C)c(=O)n(C)c2=O)cc1
z-score: -0.224
--
compound: Cc1cc(OCC(=O)NCC(C)C)cc(C)c1Br
z-score: -0.137
--
compound: CCCOc1ccc(/C=N/NC(=O)C(=O)Nc2ccccn2)cc1
z-score: 3.92
--
compound: CN(C)CCNC(=O)c1cc2c(s1)-c1ccccc1OC2
z-score: 3.28

---

Listing of recorded z-score by entry.
target: Metabotropic glutamate receptor 8 (Rattus norvegicus) (UniProt P70579); assay: mGluR8 Gi/Go-coupled signaling modulation – cell-based, rat, thallium flux, HTS, primary screen (AID 488969); conditions: HEK293 rat mGluR8, GIRK thallium flux, FluoZin2; at 10 µM; stronger effect = higher value; submaximal glutamate (EC20) added with thallium
Sequence (P70579 whole entry, looked up): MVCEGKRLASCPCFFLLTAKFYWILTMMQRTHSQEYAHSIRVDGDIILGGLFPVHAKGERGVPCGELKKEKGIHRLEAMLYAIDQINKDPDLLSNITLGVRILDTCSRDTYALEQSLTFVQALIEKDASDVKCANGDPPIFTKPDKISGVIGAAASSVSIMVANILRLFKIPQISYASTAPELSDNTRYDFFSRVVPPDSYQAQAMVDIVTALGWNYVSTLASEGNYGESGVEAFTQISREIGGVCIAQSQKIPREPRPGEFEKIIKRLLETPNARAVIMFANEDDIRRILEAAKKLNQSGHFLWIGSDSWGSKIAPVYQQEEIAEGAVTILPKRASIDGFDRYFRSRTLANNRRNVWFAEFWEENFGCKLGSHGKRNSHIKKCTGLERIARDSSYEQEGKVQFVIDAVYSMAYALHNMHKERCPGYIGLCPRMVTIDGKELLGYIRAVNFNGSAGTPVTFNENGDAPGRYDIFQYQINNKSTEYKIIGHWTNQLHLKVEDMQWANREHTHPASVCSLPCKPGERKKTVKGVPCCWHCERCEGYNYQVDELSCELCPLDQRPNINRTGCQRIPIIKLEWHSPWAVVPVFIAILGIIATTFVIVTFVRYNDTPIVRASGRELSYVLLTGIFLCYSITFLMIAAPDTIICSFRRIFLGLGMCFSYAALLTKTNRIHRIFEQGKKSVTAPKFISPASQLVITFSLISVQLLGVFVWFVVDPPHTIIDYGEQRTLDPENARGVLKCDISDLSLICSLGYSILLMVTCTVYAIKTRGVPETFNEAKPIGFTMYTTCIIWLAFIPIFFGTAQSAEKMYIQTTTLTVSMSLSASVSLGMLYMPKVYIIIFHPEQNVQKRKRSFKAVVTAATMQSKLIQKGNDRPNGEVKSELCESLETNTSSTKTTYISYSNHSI
In all, about 110,000 compounds were measured (“z-score”: median about -0.1, highest 2% from about 2 on). Shown is part of a subset that was picked to be rich in the highest values. The source made the active and inactive calls.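 The calls were made as follows: active = z-score in the third read window above 3 or below -3; inactive = the rest.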

compound: COc1ccccc1N1CCN(S(=O)(=O)c2ccccc2F)CC1
z-score: -0.52
//
compound: Cc1ccc(C)c(Nc2c([N+](=O)[O-])cc(C(=O)N3CC(=O)Nc4ccccc43)cc2[N+](=O)[O-])c1
z-score: 4.62 (active)
//
compound: Cc1cc(C)cc(OCC(=O)N2CCCCCC2)c1
z-score: -0.242
//
compound: CCOc1ccc(-c2nnn(CC(=O)NCc3ccco3)n2)cc1OCC
z-score: 0.241
//
compound: Cc1cc(C)cc(OCC(=O)N2N=C(C(F)(F)F)CC2(O)C(C)(C)C)c1 (stereo unspecified)
z-score: 4.9 (active)
//
compound: CCN(CC)CCn1cnc2c([nH]c3cccc(OC)c32)c1=O
z-score: -0.0646

---

target: Metabotropic glutamate receptor 8 (Rattus norvegicus); experiment: mGluR8 Gi/Go-coupled signaling modulation – cell-based, rat, thallium flux, HTS, primary screen (AID 488969); conditions: HEK293 rat mGluR8, GIRK thallium flux, FluoZin2; at 10 µM; stronger effect = higher value; submaximal glutamate (EC20) added with thallium
The full ranking holds about 110,000 compounds; the median of “z-score” is about -0.1, and the highest 2% start at about 2. What follows is part of a selection rich in the highest values, with near analogues and random picks from the rest.
// reported z-score per item
readoutLabel: z-score

molecule: O=C(CN1CCOCC1)Nc1ccccc1C(=O)O
measurementTarget: Metabotropic glutamate receptor 8 (Rattus norvegicus)
reportedMeasurement: -0.257

molecule: CC1CC(Nc2cccc(O)c2)=CC(=O)O1 (stereo not drawn)
measurementTarget: Metabotropic glutamate receptor 8 (Rattus norvegicus)
reportedMeasurement: -0.0768

molecule: CC(=O)Nc1ccc(C(=O)N2CCCC2)cc1
measurementTarget: Metabotropic glutamate receptor 8 (Rattus norvegicus)
reportedMeasurement: -0.0468

---

Readings of z-score for the listed compounds
target: Metabotropic glutamate receptor 8 (Rattus norvegicus) (UniProt P70579); experiment: mGluR8 Gi/Go-coupled signaling modulation – cell-based, rat, thallium flux, HTS, primary screen (AID 488969); conditions: HEK293 rat mGluR8, GIRK thallium flux, FluoZin2; at 10 µM; stronger effect = higher value; submaximal glutamate (EC20) added with thallium
In all, about 110,000 compounds were measured (“z-score”: median about -0.1, highest 2% from about 2 on). The sample holds the highest values, similar compounds and a random draw of the others, so the mix is not that of the screen.

compound: C1=C(CCNCC2CC2)CCCC1
z-score: 0.204
--
compound: Cc1ccc(CNC(=O)C(=O)NCCC2=CCCCC2)cc1
z-score: -0.102
--
compound: O=C(Nc1nncs1)C1COc2ccccc2O1 (stereo not given)
z-score: 0.542
--
compound: Cc1ccc(CNCCC2=CCCCC2)cc1
z-score: 2.07
--
compound: Clc1ccc(CNCCC2=CCCCC2)cc1
z-score: 2.27

---

Reported z-score values follow for various compounds
molecular target: Metabotropic glutamate receptor 8 (Rattus norvegicus); assay: mGluR8 Gi/Go-coupled signaling modulation – cell-based, rat, thallium flux, HTS, primary screen (AID 488969); settings: HEK293 rat mGluR8, GIRK (G protein-gated inwardly rectifying potassium channel) thallium flux, FluoZin2; at 10 µM; stronger effect = higher value; submaximal glutamate (EC20) added with thallium
Whole data set: some 110,000 compounds, median “z-score” near -0.1, cut for the highest 2% near 2. Only a selection was taken, and the highest values are over-represented in it overall.

compound: COC(=O)c1ccccc1NC(=S)NC(=O)C1CC1
z-score: -0.189

compound: CC1CC1C(=O)NCCc1ccc(Cl)cc1 (stereo not drawn)
z-score: 1.05

compound: Cc1ccc(NC(=O)COC(=O)CCC(=O)c2ccc(Cl)cc2)cc1S(=O)(=O)N(C)C
z-score: 3.92

compound: CC12CCC(C(=O)N(CSC(=S)N/N=C\c3ccccc3Cl)C1=O)C2(C)C (stereo not drawn)
z-score: 16.2

compound: CN(C)CCC1Sc2ccccc2Oc2ccccc21 (stereo not drawn)
z-score: 1.77

compound: Cc1ccc2nc(N3C(=O)C(O)=C(C(=O)c4ccco4)C3c3cccs3)sc2c1 (stereo not drawn)
z-score: -1.09

compound: Cc1ccc(-c2nn(CCC#N)cc2C=C(C#N)C#N)cc1
z-score: 0.287

compound: COC(=O)c1ccccc1NC(=S)NC(=O)c1ccc(C)cc1
z-score: 2.94

compound: CCC/C(=N/NC(=O)c1cccc(Cl)c1)c1ccccc1
z-score: 5.45

compound: CCOCC(=O)Nc1c(C(=O)OCC)oc2ccccc12
z-score: -0.215

compound: COc1ccnc(N2CCN(c3ccccc3)CC2)c1C#N
z-score: 0.0026

compound: CC(=O)c1c(C)nc2ccccc2c1N
z-score: 0.205

compound: O=C(NCCCN1CCOCC1)c1ccc(CS(=O)(=O)c2ccc(Br)cc2)o1
z-score: -0.0398

compound: CCCCn1c(CN(C)Cc2ccccc2)nc2c1c(=O)n(C)c(=O)n2C
z-score: 0.165

compound: Cc1ccc(S(=O)(=O)N(C)C)cc1NC(=O)COC(=O)CCC(=O)c1ccc(F)cc1
z-score: -0.39

compound: CCOCc1c(C(=O)OCC(=O)Nc2ccc(C)c(S(=O)(=O)N(C)C)c2)oc2ccccc12
z-score: 9.51

compound: O=C(/C=C/c1ccc(F)cc1)c1ccccc1Br
z-score: -0.272

compound: O=C(Nc1cc(C(F)(F)F)ccc1F)C1CCC1
z-score: 0.411

compound: Cc1ccc(NC(=O)COC(=O)/C=C/c2ccco2)cc1S(=O)(=O)N(C)C
z-score: 1.23

compound: CC12CCC(C(=O)N(NC(=O)c3ccccc3Cl)C1=O)C2(C)C (stereo not drawn)
z-score: 0.00342

compound: Cc1nc(NCCc2ccc(S(N)(=O)=O)cc2)c2c3c(sc2n1)CCC3
z-score: -0.34

compound: Cc1cc(N2CCN(c3nc(N4CCOCC4)nc4ccccc34)CC2)c2ccccc2n1
z-score: 0.213

compound: CCOCCn1c(CN(Cc2ccccc2)Cc2ccccc2)nc2c1c(=O)n(C)c(=O)n2C
z-score: 0.389

compound: O=C(CSCc1ccccc1Br)N/N=C/c1ccc2c(c1)OCO2
z-score: -0.0558

compound: CNCCCC1Sc2ccccc2Oc2ccccc21 (stereo not drawn)
z-score: 2.85

compound: O=C(NNC(=O)C1CCCO1)c1ccc(F)cc1 (stereo not drawn)
z-score: -0.154

compound: COc1cc(/C=N/NC(=O)c2sc(N)c(C#N)c2C)cc(Br)c1O
z-score: -0.544

compound: COC(=O)c1ccccc1NC(=S)NC(=O)c1ccccc1
z-score: 13.1

compound: Cc1ccc2[nH]c(=O)c(CN(CCO)C(=O)N(C)C)cc2c1
z-score: -0.0536

compound: Cc1ccc2c(Cl)cc(Cl)c(OCC(=O)Nc3cccc(S(=O)(=O)N(C)C)c3)c2n1
z-score: 0.415

compound: CC12CCC(C(=O)N(CC(O)CN3CCCCCC3)C1=O)C2(C)C (stereo not drawn)
z-score: 0.13

compound: Cc1ccc(CNC(=O)C(=O)NCCCn2ccnc2)cc1
z-score: -0.281

compound: COc1cccc(C(=O)N/N=C(/CCC(=O)O)c2ccccc2)c1
z-score: -0.189

compound: CC(=O)Nc1ccc(OCC(O)CN2C(C)CCCC2C)cc1 (stereo not drawn)
z-score: -0.417

compound: Cc1ccc(NC(=O)Cc2c(Cl)cccc2Cl)cc1S(=O)(=O)N(C)C
z-score: 1

compound: O=C(Nc1cccc(Cl)c1)Nc1nnc(-c2ccncc2)s1
z-score: -0.194

compound: CCC(C)n1c(SCc2ccc([N+](=O)[O-])cc2)nc2ccsc2c1=O (stereo not drawn)
z-score: 0.36

compound: COc1ccc(-c2csc(NC(=O)c3nc(-c4ccccc4)oc3C)n2)cc1
z-score: 0.528

# credit: PubChem BioAssay AID488969
